- Species: Mus musculus
- assay procedure: Half-maximal response in vitro using peritoneal exudate cells from Propionibacterium acnes-primed mice
- Format: functional
- experimental conditions: read-out: ED50 (the source's name)
quantity measured: EC50 (mg/L)

molecule	reported result
CCCCCCCCCCCCCCCC(=O)O[C@H](CCCCCCCCCCC)CC(=O)N[C@H]1[C@@H](O)[C@H](O)[C@H](CO[C@@H]2O[C@@H](CO)[C@@H](OP(=O)(O)O)[C@H](OC(=O)C[C@@H](CCCCCCCCCCC)OC(=O)CCCCCCCCCCCCC)[C@@H]2NC(=O)C[C@@H](CCCCCCCCCCC)OC(=O)CCCCCCCCCCC)O[C@H]1O	0.014
CCCCCCCCCCCCCC(=O)O[C@H](CCCCCCCCCCC)CC(=O)NC(CO[C@@H]1OC(CO)[C@H](OP(=O)(O)O)C(OC(=O)C[C@@H](CCCCCCCCCCC)OC(=O)CCCCCCCCCCCCC)[C@@H]1NC(=O)C[C@@H](CCCCCCCCCCC)OC(=O)CCCCCCCCCCCCC)C(=O)OC (some centres undefined)	0.067

----------
- Species on record: Homo sapiens
- assay procedure: Relative ex vivo induction of IL1-beta in human whole blood stimulated with 10 ug/mL
- Type: functional
Threshold check on Cytokine induction: at or above 4 gives t, strictly below gives f.

compound	answer label
CCCCCCCCCCCCCCCC(=O)O[C@H](CCCCCCCCCCC)CC(=O)N[C@H]1[C@@H](O)[C@H](O)[C@H](CO[C@@H]2O[C@@H](CO)[C@@H](OP(=O)(O)O)[C@H](OC(=O)C[C@@H](CCCCCCCCCCC)OC(=O)CCCCCCCCCCCCC)[C@@H]2NC(=O)C[C@@H](CCCCCCCCCCC)OC(=O)CCCCCCCCCCC)O[C@H]1O	f
CCCCCCCCCCC[C@H](CC(=O)NCCO[C@@H]1OC(CO)[C@H](OP(=O)(O)O)C(OC(=O)C[C@@H](CCCCCCCCCCC)OC(=O)CCCCCCCCC)[C@@H]1NC(=O)C[C@@H](CCCCCCCCCCC)OC(=O)CCCCCCCCC)OC(=O)CCCCCCCCC (stereo not given in full)	f
CCCCCCCCCCCCCC(=O)O[C@H](CCCCCCCCCCC)CC(=O)NCCCCO[C@@H]1OC(CO)[C@H](OP(=O)(O)O)C(OC(=O)C[C@@H](CCCCCCCCCCC)OC(=O)CCCCCCCCCCCCC)[C@@H]1NC(=O)C[C@@H](CCCCCCCCCCC)OC(=O)CCCCCCCCCCCCC (stereo not given in full)	f
CCCCCCCCCCCCCC(=O)O[C@H](CCCCCCCCCCC)CC(=O)NCCCO[C@@H]1OC(CO)[C@H](OP(=O)(O)O)C(OC(=O)C[C@@H](CCCCCCCCCCC)OC(=O)CCCCCCCCCCCCC)[C@@H]1NC(=O)C[C@@H](CCCCCCCCCCC)OC(=O)CCCCCCCCCCCCC (stereo not given in full)	f
CCCCCCCCCCCCCC(=O)O[C@H](CCCCCCCCCCC)CC(=O)N[C@H](CO)CO[C@@H]1OC(CO)[C@H](OP(=O)(O)O)C(OC(=O)C[C@@H](CCCCCCCCCCC)OC(=O)CCCCCCCCCCCCC)[C@@H]1NC(=O)C[C@@H](CCCCCCCCCCC)OC(=O)CCCCCCCCCCCCC (stereo not given in full)	t

----------
Response values by entry
- Species on record: Mus musculus
- assay procedure: Ability to enhance antibody response to tetanus toxoid vaccine, IgG2b
- Type: functional
quantity measured: Response

compound	reported result
CCCCCCCCCCCCCC(=O)O[C@H](CCCCCCCCCCC)CC(=O)N[C@@H](CO)CO[C@@H]1OC(CO)[C@H](OP(=O)(O)O)C(OC(=O)C[C@@H](CCCCCCCCCCC)OC(=O)CCCCCCCCCCCCC)[C@@H]1NC(=O)C[C@@H](CCCCCCCCCCC)OC(=O)CCCCCCCCCCCCC (stereo partly drawn)	2.4
CCCCCCCCCCC[C@H](CC(=O)NC(CO[C@@H]1OC(CO)[C@H](OP(=O)(O)O)C(OC(=O)C[C@@H](CCCCCCCCCCC)OC(=O)CCCCCCCCC)[C@@H]1NC(=O)C[C@@H](CCCCCCCCCCC)OC(=O)CCCCCCCCC)C(N)=O)OC(=O)CCCCCCCCC (stereo partly drawn)	3.3
CCCCCCCCCCC[C@H](CC(=O)N[C@@H](CO[C@@H]1OC(CO)[C@H](OP(=O)(O)O)C(OC(=O)C[C@@H](CCCCCCCCCCC)OC(=O)CCCCCCCCC)[C@@H]1NC(=O)C[C@@H](CCCCCCCCCCC)OC(=O)CCCCCCCCC)C(=O)O)OC(=O)CCCCCCCCC (stereo partly drawn)	2.8

----------
- Species: Mus musculus
- assay procedure: Ability to enhance antibody response to tetanus toxoid vaccine, IgG2b
- Assay type: functional

compound	Response
CCCCCCCCCCCCCC(=O)O[C@H](CCCCCCCCCCC)CC(=O)NC(CO[C@@H]1OC(CO)[C@H](OP(=O)(O)O)C(OC(=O)C[C@@H](CCCCCCCCCCC)OC(=O)CCCCCCCCCCCCC)[C@@H]1NC(=O)C[C@@H](CCCCCCCCCCC)OC(=O)CCCCCCCCCCCCC)C(=O)O (some centres undefined)	0.9
CCCCCCCCCCC[C@H](CC(=O)NC(CO[C@@H]1OC(CO)[C@H](OP(=O)(O)O)C(OC(=O)C[C@@H](CCCCCCCCCCC)OC(=O)CCCCC)[C@@H]1NC(=O)C[C@@H](CCCCCCCCCCC)OC(=O)CCCCC)C(=O)O)OC(=O)CCCCC (some centres undefined)	0.9
CCCCCCCCCCCCCC(=O)O[C@H](CCCCCCCCCCC)CC(=O)N[C@H](CO)CO[C@@H]1OC(CO)[C@H](OP(=O)(O)O)C(OC(=O)C[C@@H](CCCCCCCCCCC)OC(=O)CCCCCCCCCCCCC)[C@@H]1NC(=O)C[C@@H](CCCCCCCCCCC)OC(=O)CCCCCCCCCCCCC (some centres undefined)	1.6
CCCCCCCCCCCCCC(=O)O[C@H](CCCCCCCCCCC)CC(=O)NCCCO[C@@H]1OC(CO)[C@H](OP(=O)(O)O)C(OC(=O)C[C@@H](CCCCCCCCCCC)OC(=O)CCCCCCCCCCCCC)[C@@H]1NC(=O)C[C@@H](CCCCCCCCCCC)OC(=O)CCCCCCCCCCCCC (some centres undefined)	6.1

----------
- Species on record: Mus musculus
- assay procedure: Half-maximal response in vitro using peritoneal exudate cells from Propionibacterium acnes-primed mice
- Assay type: functional
- experimental conditions: read-out: ED50 (the source's name)
EC50 values by entry

molecule	EC50
CCCCCCCCCCCCCC(=O)O[C@H](CCCCCCCCCCC)CC(=O)NCCCO[C@@H]1OC(CO)[C@H](OP(=O)(O)O)C(OC(=O)C[C@@H](CCCCCCCCCCC)OC(=O)CCCCCCCCCCCCC)[C@@H]1NC(=O)C[C@@H](CCCCCCCCCCC)OC(=O)CCCCCCCCCCCCC (stereo partly drawn)	8 ng/mL
CCCCCCCCCCC[C@H](CC(=O)NC(CO[C@@H]1OC(CO)[C@H](OP(=O)(O)O)C(OC(=O)C[C@@H](CCCCCCCCCCC)OC(=O)CCCCCCCCC)[C@@H]1NC(=O)C[C@@H](CCCCCCCCCCC)OC(=O)CCCCCCCCC)C(N)=O)OC(=O)CCCCCCCCC (stereo partly drawn)	0.3 ng/mL
CCCCCCCCCCCCCC(=O)O[C@H](CCCCCCCCCCC)CC(=O)NCCCCO[C@@H]1OC(CO)[C@H](OP(=O)(O)O)C(OC(=O)C[C@@H](CCCCCCCCCCC)OC(=O)CCCCCCCCCCCCC)[C@@H]1NC(=O)C[C@@H](CCCCCCCCCCC)OC(=O)CCCCCCCCCCCCC (stereo partly drawn)	51 ng/mL
CCCCCCCCCCCC(=O)O[C@H](CCCCCCCCCCC)CC(=O)NC(CO[C@@H]1OC(CO)[C@H](OP(=O)(O)O)C(OC(=O)C[C@@H](CCCCCCCCCCC)OC(=O)CCCCCCCCCCC)[C@@H]1NC(=O)C[C@@H](CCCCCCCCCCC)OC(=O)CCCCCCCCCCC)C(=O)O (stereo partly drawn)	0.9 ng/mL
CCCCCCCCCCCCCC(=O)O[C@H](CCCCCCCCCCC)CC(=O)NCCO[C@@H]1OC(CO)[C@H](OP(=O)(O)O)C(OC(=O)C[C@@H](CCCCCCCCCCC)OC(=O)CCCCCCCCCCCCC)[C@@H]1NC(=O)C[C@@H](CCCCCCCCCCC)OC(=O)CCCCCCCCCCCCC (stereo partly drawn)	100 ng/mL
CCCCCCCCCCC[C@H](CC(=O)NCCO[C@@H]1OC(CO)[C@H](OP(=O)(O)O)C(OC(=O)C[C@@H](CCCCCCCCCCC)OC(=O)CCCCCCCCC)[C@@H]1NC(=O)C[C@@H](CCCCCCCCCCC)OC(=O)CCCCCCCCC)OC(=O)CCCCCCCCC (stereo partly drawn)	0.5 ng/mL
CCCCCCCCCCC[C@H](CC(=O)NCCO[C@@H]1OC(CO)[C@H](OP(=O)(O)O)C(OC(=O)C[C@@H](CCCCCCCCCCC)OC(=O)CCCCC)[C@@H]1NC(=O)C[C@@H](CCCCCCCCCCC)OC(=O)CCCCC)OC(=O)CCCCC (stereo partly drawn)	> 10000 ng/mL
CCCCCCCCCCCCCC(=O)O[C@H](CCCCCCCCCCC)CC(=O)NCCCCCCO[C@@H]1OC(CO)[C@H](OP(=O)(O)O)C(OC(=O)C[C@@H](CCCCCCCCCCC)OC(=O)CCCCCCCCCCCCC)[C@@H]1NC(=O)C[C@@H](CCCCCCCCCCC)OC(=O)CCCCCCCCCCCCC (stereo partly drawn)	160 ng/mL
